- Test system: Dunaliella tertiolecta
- Format: cell-based
- experimentalSetup: 15 min. green light exposition at room temperature; neutral pH (pH 7); 350 000 cells/mL
- Experimental: The detection threshold was obtained with the geometric mean. It was calculated with the following formula: Detection threshold=(CSEO×CMEO)^1/2 where CMEO=minimal concentration resulting in a detectable inhibition of the algae efficacy. CSEO and CMEO were estimated by a variance analysis ANNOVA™ followed by a Dunnett multiple comparison by comparing the mean efficacy of each tested concentration with the control mean. Calculations were performed with TOXSTAT™ (Version 3.5). […]
measuredParameter: Detection threshold (ppm)
// note: answer is a bare numeric in ppm

{"compound": "COP(=O)(OC)O/C(C)=C/C(=O)N(C)C [dicrotophos]", "recordedMeasurement": 235}
{"compound": "CN(C)C(=O)Nc1ccc(Cl)c(Cl)c1 [Diuron]", "recordedMeasurement": 0.002}
{"compound": "CCOC(=O)CC(SP(=S)(OC)OC)C(=O)OCC (stereo not drawn) [malathion]", "recordedMeasurement": 50}
{"compound": "CCOP(=S)(OCC)Oc1nc(Cl)c(Cl)cc1Cl [chlorpyrifos]", "recordedMeasurement": 1}
{"compound": "CCNc1nc(Cl)nc(NC(C)C)n1 [atrazine]", "recordedMeasurement": 0.01}

Okay, next one:
Sure, the documented Detection threshold for O=C(O)CNCP(=O)(O)O [glyphosate] is 50
